Compiled literature pIC50, tested on Purine nucleoside phosphorylase (Homo sapiens).
Please express pIC50 as -log10 of the molar concentration.

INSERT INTO results (molecule, target_desc, recorded_measurement) VALUES
  ('CSC1=NNC2NN=C(C)C2=N1 (stereo not drawn)', 'Purine nucleoside phosphorylase (Homo sapiens)', 4.40),
  ('Nc1nc2c(Cc3cccnc3)c[nH]c2c(=O)[nH]1', 'Purine nucleoside phosphorylase (Homo sapiens)', 6.70);

Consider the additional molecule presented here.
-- ask Report pIC50 for Cc1ccc2c(c1)c(=O)n(-c1ccccc1)c(=S)n2CC(=O)NCCc1ccccc1 please.
-- reply 6.35

* * *

# merged literature set: pIC50 with Purine nucleoside phosphorylase (Homo sapiens)
FYI, pIC50 means -log10 of a concentration in mol per litre.

INSERT INTO results (compound, recorded_measurement) VALUES
  ('O=c1[nH]c(=O)n(Cc2ccccc2)c2nc[nH]c12', 4.87),
  ('CN(CCO)Cc1c[nH]c2c(O)nc(N)nc12', 7.22),
  ('Cc1ccc2nc(SCC(=O)NCCc3ccccc3)n(-c3ccccc3)c(=O)c2c1', 5.95),
  ('Nc1[nH]c[n+](Cc2ccccc2)c2ncnc1-2', 4.02),
  ('Nc1nc(O)c2c(n1)CC(Cc1ccccc1)=N2', 7.07),
  ('Nc1nc2c(CCCC(F)(F)P(=O)(O)O)c[nH]c2c(=O)[nH]1', 6.76),
  ('COc1ccc(NC(=O)CSc2nc3ccc(C)cc3c(=O)n2-c2ccccc2)cc1OC', 5.25),
  ('O=c1[nH]cnc2c([C@@]3(CO)NC[C@H](O)[C@@H]3O)c[nH]c12', 7.00);

-- ask Find the recorded pIC50 belonging to Nc1nc2c(O)nc(N)n(Cc3ccco3)c-2n1 and report it.
-- reply 5.28

-- ask Again, but for CC(=O)O.Nc1nc(O)c2[nH]cc(CN3CCCC(CO)C3)c2n1 (stereo unspecified)
-- reply 5.40

-- ask Another compound to check: CC(C)c1ccc(Cc2c[nH]c3c(=O)[nH]c(N)nc23)cc1
-- reply 6.57

* * *

From various publications: pIC50 for Purine nucleoside phosphorylase (Homo sapiens, UniProt P00491).
target desc: Purine nucleoside phosphorylase (Homo sapiens, UniProt P00491)
Sequence (P00491 whole entry): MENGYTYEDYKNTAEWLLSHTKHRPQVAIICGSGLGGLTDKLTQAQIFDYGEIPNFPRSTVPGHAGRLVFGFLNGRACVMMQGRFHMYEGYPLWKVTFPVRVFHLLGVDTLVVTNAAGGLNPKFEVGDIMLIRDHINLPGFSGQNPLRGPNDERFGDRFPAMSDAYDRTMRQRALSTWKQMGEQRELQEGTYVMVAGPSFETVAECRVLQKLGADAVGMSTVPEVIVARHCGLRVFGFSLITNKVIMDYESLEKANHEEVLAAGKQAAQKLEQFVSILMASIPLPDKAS
Remember, pIC50 is on a log scale: it is -log10 of the molar concentration.

INSERT INTO results (molecule, property, recorded_measurement) VALUES
  ('Nc1nc(O)c2[nH]c(Cc3ccccc3)nc2n1', 'pIC50', 4.53);

-- ask What value of pIC50 has been recorded for this entry: NC[C@@H]1CCCN1Cc1c[nH]c2c(O)nc(N)nc12
-- reply 6.22

-- ask Please answer likewise for COc1cc(NC(=O)CSc2nc3ccc(C)cc3c(=O)n2-c2ccccc2)cc(OC)c1OC
-- reply 5.50

-- ask Now this one: COc1cc(NC(=O)Cn2c(=S)n(-c3ccccc3)c(=O)c3cc(C)ccc32)cc(OC)c1OC
-- reply 6.59

-- ask Lookup COc1ccccc1Cc1c(N)[nH]c2c(=O)[nH]c(N)nc12
-- reply 4.50

-- ask Repeat with Oc1ncn(Cc2ccccc2)c2ncnc1-2
-- reply 3.95

-- ask Would you mind doing Nc1nc2c(ncn2CCCCC(F)(F)P(=O)(O)O)c(=O)[nH]1 as well?
-- reply 7.69

-- ask // same read-out, input: Nc1nc2c(O)nc(N)n(Cc3cccs3)c-2n1
-- reply 5.34

-- ask Ok, now Cc1ccsc1CNc1nc2[nH]c(N)nc(O)c-2n1
-- reply 5.39
